Cited source: PubChem BioAssay (NCI)

Test system: DU-145 prostate
protocol_details: NCI tumour cell line growth inhibition, 48 h; in the data active = GI50 below about 0.43 µM; inactive = the rest
Lab note: assign the record to one of 1.0 for active, 0.0 for inactive

Would you please look over these solved cases?
* S=C(N/N=C/c1cc(Cl)cc(Cl)c1)NC12CC3CC(CC(C3)C1)C2 | 0.0
* Cc1ccc(C(=O)Nc2ccc(CN3CCN(C)CC3)c(C(F)(F)F)c2)cc1C#Cc1cnc(N)c2ccc(F)cc12 | 1.0
* Clc1ccc(COC(Cn2ccnc2)c2ccc(Cl)cc2Cl)cc1 (centres undefined) | 0.0

Now look at this entry.
Per the records of this test, what outcome belongs to `CCOC(=O)c1c(NC(=O)c2ccc(C(C)C)cc2)sc2c(CN(C)C)c(O)ccc12` ?
0.0
